Reference for the values: the supplement of paper PMC7125110

B1: glmS ribozyme (parent)
chain: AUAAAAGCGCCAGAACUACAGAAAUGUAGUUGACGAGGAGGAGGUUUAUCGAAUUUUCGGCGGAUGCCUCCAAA

# Variants of: B1
# assay.info: self-cleavage kobs at 10000 uM GlcN6P; higher = faster cleavage; RNA array
# reported.conditions: with glucosamine-6-phosphate
This sample holds only a part of the variants without activity.
observed.property: self-cleavage kobs at 10000 uM GlcN6P (s⁻¹)
Answers are plain numbers, in s⁻¹.

Each variant below has a reported value. Please supply its self-cleavage kobs at 10000 uM GlcN6P.
1. AUAAAAGCGCCAGAACUACAGAAAUGUAGUUGACGAGGAGGAGGUGUAUCGAAUUUUCGGCGGAUGCGUCCAAA
2. AUAAAAGCGCCAGAACUACAGAAAUGUAGUUGACGAGGACGAGGGUUAUCGAAUUUUCGGCGGAUGCCUCCAAA

Output:
1. 9.69e-05
2. 0.00114

Each variant below has a reported value. Please supply its self-cleavage kobs at 10000 uM GlcN6P.
1. AUAAAAGCGCCAGAACUACAGAAAUGUAGUUGACGAGGGGGAGGUUUAUCGAAUUUUGGGCGGAUGUCUCCAAA
2. AUAAAAGCGCCAGAACUACAGAAAUGUAGUUGACGAGGAGGAGGUUUAUCGAAUGUUCGGCGGAUGCCUCGAAA
3. AUAAAAGCGCCAGAACUACAGAAAUGUAGUUGACGAGGGGGAGGUUUAUCGAAUUUUCUGCGGAUGCCUCCAAA
4. AUAAAAGCGCCAGAACUACAGAAAUGUAGUUGACGAGGAGGAGGCUUAUCGAAAUUUCGGCGGAUGCCUCCAAA
5. AUAAAAGCGCCAGAAUUACAGAAAUGUAGUUGACGAGGAGGAGGUUUAUCGAGUUUUCGGCGGAUGCCGCCAAA

Output:
["3.44e-05", 0.00121, "5.72e-05", 0.00436, "6.58e-05"]
